Settings: bacteroides fragilis, 12 h, 2 µM
Description: The drug is tested on Bacteroides fragilis strain: NCTC 9343 for biotransformation. The drug concentrations were measured before and after a 12-h incubation by liquid-chromatography-coupled mass spectrometry (LC–MS)
measurement type: Bacterial Biotransformation

COc1cc(NC(C)CCCN)c2ncccc2c1.O=P(O)(O)O.O=P(O)(O)O (centres undefined) [PRIMAQUINE PHOSPHATE]    Compound NOT metabolized
CCN(CC)C(=O)/C(C#N)=C/c1cc(O)c(O)c([N+](=O)[O-])c1    Compound metabolized
CC(C)(C(=O)O)c1ccc(C(O)CCCN2CCC(C(O)(c3ccccc3)c3ccccc3)CC2)cc1 (centres undefined) [FEXOFENADINE]    Compound NOT metabolized
CCCc1nc(C(C)(C)O)c(C(=O)OCc2oc(=O)oc2C)n1Cc1ccc(-c2ccccc2-c2nnn[nH]2)cc1    Compound metabolized
